Attribution: ChEMBL document CHEMBL5291721

- test-target: Amine oxidase [flavin-containing] A (Homo sapiens); note: assay procedure not described here
- Sequence (P21397 whole entry): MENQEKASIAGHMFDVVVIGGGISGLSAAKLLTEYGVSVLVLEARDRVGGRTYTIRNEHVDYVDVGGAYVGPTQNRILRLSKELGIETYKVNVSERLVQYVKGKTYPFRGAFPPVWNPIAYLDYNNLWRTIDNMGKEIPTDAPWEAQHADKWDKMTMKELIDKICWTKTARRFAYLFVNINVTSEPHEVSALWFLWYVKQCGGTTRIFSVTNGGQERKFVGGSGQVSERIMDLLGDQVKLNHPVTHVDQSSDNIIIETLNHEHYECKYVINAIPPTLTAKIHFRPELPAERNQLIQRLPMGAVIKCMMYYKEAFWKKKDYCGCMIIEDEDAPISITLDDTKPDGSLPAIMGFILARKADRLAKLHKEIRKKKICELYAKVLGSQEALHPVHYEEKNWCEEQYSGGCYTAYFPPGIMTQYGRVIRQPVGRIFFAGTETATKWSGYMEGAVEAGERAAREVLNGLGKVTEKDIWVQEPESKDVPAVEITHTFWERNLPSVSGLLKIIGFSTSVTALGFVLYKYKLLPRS
- Type: functional
outcome-measure: AC50

Look up AC50 of CCO[C@@H](Cc1ccc(OCCn2c(C)ccc2-c2ccc(SC)cc2)cc1)C(=O)O [SAROGLITAZAR] and report it.
> 30 µM

Fill in AC50 for record COCC1=C(C(=O)OC(C)OC(=O)OC(C)C)N2C(=O)[C@@H](NC(=O)/C(=N\OC)c3csc(N)n3)[C@H]2SC1 (stereo partly drawn) [CEFPODOXIME PROXETIL]
> 30 µM

Report measured AC50; entry is C(=N\NC1=NCCN1)/c1c2ccccc2c(/C=N/NC2=NCCN2)c2ccccc12 [BISANTRENE]
> 30 µM

----------
Some compounds, each annotated with its measured AC50.
- test-target: Histamine H2 receptor (Homo sapiens, UniProt P25021); note: assay procedure not described here
- Sequence (P25021 whole entry): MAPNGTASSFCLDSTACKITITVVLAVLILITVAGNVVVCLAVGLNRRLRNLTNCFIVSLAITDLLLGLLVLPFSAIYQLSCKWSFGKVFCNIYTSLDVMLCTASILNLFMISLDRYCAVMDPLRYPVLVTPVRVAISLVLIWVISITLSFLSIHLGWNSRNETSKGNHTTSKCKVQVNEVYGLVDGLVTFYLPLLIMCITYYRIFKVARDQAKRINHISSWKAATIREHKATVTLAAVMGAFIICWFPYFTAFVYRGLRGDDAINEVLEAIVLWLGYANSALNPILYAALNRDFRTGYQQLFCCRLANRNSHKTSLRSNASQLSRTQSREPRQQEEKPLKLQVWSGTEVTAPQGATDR
- Type: functional, cell-based

Example results:
CN(CCOc1ccc(NS(C)(=O)=O)cc1)CCc1ccc(NS(C)(=O)=O)cc1 [DOFETILIDE] | > 30 µM
Oc1ncnc2[nH]ncc12 | > 10 µM

Please look at this compound and report its AC50: N/N=c1/cc2c(n[nH]1)CCN(C(=O)c1ccccc1)C2
> 30 µM

In one line, give reported AC50 of the entry O=C(O)Cc1cn(-c2ccccc2)nc1-c1ccc(Cl)cc1 .
> 30 µM

Let me know recorded AC50 for CCCCN1CCCCC1C(=O)Nc1c(C)cccc1C (stereo unspecified) , thanks.
> 30 µM

Please report the measured AC50 for C#CCN[C@@H]1CCc2ccccc21
> 30 µM

Return reported AC50. Input compound: NS(=O)(=O)c1cc2c(cc1Cl)NCNS2(=O)=O [HYDROCHLOROTHIAZIDE]
> 10 µM

Name the recorded AC50 of the item Cc1c(O)c(=O)ccn1C in your answer.
> 30 µM

----------
- test-target: Cannabinoid receptor 1 (Homo sapiens, UniProt P21554); note: assay procedure not described here
- Sequence (P21554 whole entry): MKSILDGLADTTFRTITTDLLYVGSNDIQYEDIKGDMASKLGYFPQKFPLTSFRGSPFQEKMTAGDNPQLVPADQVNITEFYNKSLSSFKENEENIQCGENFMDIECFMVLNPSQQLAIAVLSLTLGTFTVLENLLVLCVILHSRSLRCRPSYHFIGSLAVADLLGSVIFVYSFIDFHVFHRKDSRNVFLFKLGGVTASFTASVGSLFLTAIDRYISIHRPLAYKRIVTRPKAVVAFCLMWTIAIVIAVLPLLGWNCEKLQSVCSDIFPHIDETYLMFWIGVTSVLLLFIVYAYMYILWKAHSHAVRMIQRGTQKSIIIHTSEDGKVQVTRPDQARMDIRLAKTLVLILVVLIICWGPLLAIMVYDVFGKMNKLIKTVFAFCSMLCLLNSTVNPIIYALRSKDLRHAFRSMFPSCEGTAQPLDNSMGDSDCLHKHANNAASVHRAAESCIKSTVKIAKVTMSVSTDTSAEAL
- Type: functional, cell-based
outcome-measure: AC50

CO/N=C(\C(=O)N[C@@H]1C(=O)N2C(C(=O)[O-])=C(C[N+]3(C)CCCC3)CS[C@H]12)c1csc(N)n1 | > 300 µM
CCCC(=O)N1CCCN(c2nc(N)c3cc(OC)c(OC)cc3n2)CC1 [BUNAZOSIN] | > 30 µM
O=C(O)Cc1cn(-c2ccccc2)nc1-c1ccc(Cl)cc1 [LONAZOLAC] | > 30 µM
NC(CO)C(=O)NNCc1ccc(O)c(O)c1O (configuration not stated) [BENSERAZIDE] | > 30 µM
COc1ccc(C(=O)N2CCN(c3ccc4c(c3)CCC(=O)N4)CC2)cc1OC [VESNARINONE] | > 30 µM
O=C1CCC(N2C(=O)c3ccccc3C2=O)C(=O)N1 (configuration not stated) [THALIDOMIDE] | > 30 µM
NC(N)=Nc1nc(CSCCC(N)=NS(N)(=O)=O)cs1 [FAMOTIDINE] | > 30 µM
C#C[C@]1(O)CC[C@H]2[C@@H]3CCC4=CCCC[C@@H]4[C@H]3CC[C@@]21C [LYNESTRENOL] | > 30 µM
COC(=O)[C@H]1[C@@H](OC(=O)c2ccccc2)C[C@@H]2CC[C@H]1N2C [COCAINE] | > 30 µM
CN(CCCN1c2ccccc2CCc2ccccc21)CC(=O)c1ccc(Cl)cc1 [LOFEPRAMINE] | 3.5 µM

Give AC50 for Cc1c(Cl)cccc1Nc1ccccc1C(=O)O [TOLFENAMIC ACID]
> 30 µM

For the compound CC(=O)OCC(=O)[C@@]1(O)CC[C@H]2[C@@H]3CCC4=CC(=O)CC[C@]4(C)[C@H]3C(=O)C[C@@]21C [CORTISONE ACETATE] , give its reported AC50.
> 30 µM

Quote AC50 reported for Nc1ncnc2c1ncn2[C@@H]1O[C@H](COP(=O)(O)O)[C@@H](O)[C@H]1O [ADENOSINE PHOSPHATE] please.
> 30 µM
